Each entry below carries its reported melting point.
experimental_readout: melting point

1) CCS(=O)(=O)N[C@H](C(=O)NCCc1cc(Br)c(OCC#Cc2ccc(Cl)cc2)c(OC)c1)C(C)C    109 to 111 °C
2) c1ccc(Nc2ccnc3cn[nH]c23)cc1    222 to 224 °C
3) CCc1oc2cccc(O)c2c1C    105 to 107 °C
4) COC(=O)CCCCCCC(=O)c1ccc(OC)cc1    57 to 58 °C
5) CN1CCC(c2c[nH]c3ccc(C4CN=CS4)cc23)CC1 (configuration not stated)    158 to 160 °C
6) CC(Cn1ncc2ccc(O)cc21)O[Si](C)(C)C(C)(C)C (configuration not stated)    169 to 174 °C
7) CCOC(=O)c1c(-c2ccc(F)cc2)c2ccsc2c(=O)n1C    145 to 147 °C
8) COC(=O)Nc1cnc2ccc(Sc3ccccc3)cn12    211 to 215 °C
9) Cc1nccn1Cc1ccc(NC(=O)C(F)(F)F)cc1C(F)(F)F    229 to 230 °C
10) CN1C(=O)[C@H](NC(=O)CCc2cccc(C(F)(F)F)c2)N=C(c2ccccc2)c2ccccc21    135 to 136 °C
11) O=c1c(Br)c(OCc2ccccc2)ccn1Cc1cccc(C(F)(F)F)c1    182 °C
12) CCN(CCO)c1ccc(C(=O)OC)cc1    61 to 64 °C
13) Cc1cncc(C)c1-c1c(C)cc(I)cc1C    242 to 243 °C
14) CS(=O)(=O)c1ccc(-c2cnn(C3CCC3)c(=O)c2-c2ccc(F)cc2)cc1    202 to 203 °C
15) CS(=O)(=O)c1ccc(-n2nc(C(F)(F)F)cc2-c2ccc(-c3ccsc3)cc2)cc1F    72 to 74 °C
16) CC(C)=CCSC1=C(O)CC(C)(C)CC1=O    50.5 to 52 °C
17) CCNc1nc(C)c(-c2ccnc(Nc3ccc(N4CCCCC4)c(C)c3)n2)s1    213 to 214 °C
18) COc1ccc(Cn2cnc3c(-c4ccco4)nc(S(C)(=O)=O)nc32)cc1    184 to 185 °C
19) O=C(CNc1ccc(S(=O)(=O)O)cc1)c1ccccc1    > 300 °C
20) C[Si](C)(C)C#Cc1ccc2c(C(=O)Nc3cccc(C(F)(F)F)c3)cccc2c1    134 to 136 °C
21) CCC1(CCOS(C)(=O)=O)C(=O)N2CC=CC(C(=O)OC)N2C1=O (configuration not stated)    94 to 96 °C
22) O=C(O)CCCCCCC1=CCCC1=O    41 to 43 °C
23) Cn1c(CC(=O)O)cc2ccccc21    146 to 148 °C
24) Cc1cc2c(cc1Cl)N(C(=O)CN1CCN(C)CC1)c1ccccc1N(C)S2(=O)=O    156 to 158 °C
25) C=CC(O)C1OC(C)(C)OC1C(O)CO (configuration not stated)    73 to 74 °C
26) N#Cc1cccc(S(=O)(=O)N2CCn3c(c(C(N)=O)c(Cl)c3-c3ccccc3)C2)c1    243 to 245 °C
27) COc1cc2oc(-c3ccc(F)cc3)c(Br)c2c(OC)c1Br    186 to 187 °C
28) O=C1NC(=O)N(Cc2ccccc2)C(=O)C1Cc1ccccc1 (configuration not stated)    107 to 109 °C
29) O=C1c2cccc3cc4ccccc4c(c23)C(=O)N1CCNCCNCCN1C(=O)c2cccc3cc4ccccc4c(c23)C1=O    203 °C
30) CCOC(=O)Cc1n[nH]c(=O)c2cc(Cl)c(Cl)cc12    202 to 203 °C
31) Cn1c(=O)c2ccc(N)nc2n(C)c1=O    290 to 295 °C
32) O=C(Nc1ccc(Oc2ccccc2)cc1)N1CCN(c2nnc(Cc3ccccc3)c3ccccc23)CC1    100 to 101 °C
33) NC(=O)c1ccc(F)c(Br)c1    131 to 133 °C
34) CCc1nc2cc(Cl)c(Cl)cc2n1C1CC(CO)C(O)C1O (configuration not stated)    191 to 193 °C
35) Cc1cc(C=NNC(N)=S)ncc1NO    197 to 198 °C
36) COc1cc(NC(=O)Nc2ccc(C3=CCN(C(=O)Nc4ccc(OCC(O)CO)cc4Cl)CC3)cc2)cc(OC)c1 (configuration not stated)    108 to 111 °C
37) COc1cc(CCNC(=O)C(NC(=O)OC(C)(C)C)C(C)C)ccc1OCC#Cc1ccc(Cl)cc1 (configuration not stated)    141 to 142 °C
38) CCOC1OC(C(O)CO)C(O)C1O (configuration not stated)    59 to 60 °C
39) NC(=O)c1nc(-c2ccccc2)n2c1CN=C(c1ccccc1F)c1cc(Cl)ccc1-2    260 to 262 °C
40) Cc1ccnc(Cl)c1C(=O)O    152 to 154 °C
41) OCCCCOCCCCOCCCCOCCCCOCCCCO    34.5 to 36.5 °C
42) CCOC(=O)c1c(Oc2ccc(Cl)cc2N)c2ccccc2n1C    118 to 120 °C

###

Each entry below carries its reported melting point.
experimental_readout: melting point

1. COc1ccc(NC(=O)CCCn2nnnc2C)cc1    132 to 134 °C
2. NCCc1cccc(N2C(=O)N(c3c(Cl)cccc3Cl)Cc3cnc(Nc4ccccc4)nc32)c1    208 °C
3. CSc1ccc(CC(=O)NC(NC(=NC#N)Nc2cccc3ncccc23)C(C)(C)C)cc1 (stereo not given)    188 to 189 °C
4. CCOC(=O)c1cnc(SC)nc1Nc1ccc2cn[nH]c2c1    212 to 214 °C
5. COc1cncc2nc(SCc3ccccc3)nn12    114 to 116 °C
6. COC(=O)C(=NO)c1cccc(Oc2ccccc2)c1    122 to 123 °C
7. CN(C)c1ccc(/C=C/c2c(F)ccc(F)c2F)cc1    91 to 92 °C
8. COC(=O)CN(C)c1nc(-c2ccc(Br)cc2)c(C=O)s1    105 to 106 °C
9. N#CCCNC(=O)c1cccc(-c2cccc3sc(Cc4cccc(C(F)(F)F)c4)cc23)c1    137 to 138 °C
10. COC(=O)CCn1cc(C)c(=O)[nH]c1=O    112 to 119 °C

###

Each entry below carries its reported melting point.
experimental_readout: melting point

1) Cc1c(C(F)(F)F)ncn(-c2cc([N+](=O)[O-])c(F)cc2F)c1=O    157 °C
2) Cc1ccc(-c2ccc(Cl)cc2)cc1C#CC(C)(C)OCC(=O)O    125 °C
3) CNc1c(N)cnn1C    185 to 188 °C
4) N#Cc1c(N2CCN(C(=O)c3cccs3)CC2)c2sccc2[nH]c1=O    293 °C
5) Cc1cc(C)c(-c2nc(-c3ccc(O)cc3O)nc(-c3ccc(O)cc3O)n2)c(C)c1    230 to 234 °C
6) Cc1c(C)c(N2Cc3cc4c(cc3C2)OCO4)c(C)c2c1OC(C)(C)C2c1ccc(C(C)C)cc1 (stereo unspecified)    175 to 177 °C
7) N#Cc1ccc(/C=C/C=C/C=O)cc1    147 to 150 °C
8) COc1ccc(-c2cc(C(=O)NCCCCCCCCc3ccccc3)cc(-c3cccc(C(F)(F)F)c3)c2OCC(=O)O)cc1    139 to 144 °C
9) C/C(=C\c1ccc(C(=O)OCc2ccccc2)cc1)c1ccc2c(c1)C(C)(C)CCC2(C)C    113 to 114 °C
10) CCOC(=O)COc1ccc(C=O)cc1OC    56 to 59 °C
11) Cc1ccc(N=C2NCCN2)c(Cl)c1Cl    158 to 162 °C
12) COc1cc2c(C=O)c[nH]c2c2c1OCCC2=O    236 °C
13) CC(=O)N1CCN(CCNc2ncc3ncnc(Nc4ccc(F)c(Cl)c4)c3n2)CC1    196 to 198 °C
14) CN(CC(N)=O)c1nccc(-c2ccc(C(=O)NCCc3ccc4[nH]cc(C(=N)N)c4c3)cc2)n1    96 to 98 °C
15) CCCN1CC=C(c2cccc3[nH]ccc23)CC1    105 °C
16) O=C(O)C=CC(F)(F)F    95 to 100 °C
17) O=C1C2=C(CCCC2)C(=O)N1c1c(F)cc(F)cc1F    91 to 92 °C
18) CC(Cc1c[nH]c2ccccc12)(NC(=O)OC1C2CC3CC(C2)CC1C3)C(=O)NCCc1cnccn1 (stereo unspecified)    97 to 101 °C
19) OCCCC(=C(c1ccccc1)c1ccccc1)c1ccccc1    128 to 130 °C
20) CC(=O)NC1CN(CCN2CCOCC2)S(=O)(=O)c2sc(S(N)(=O)=O)cc21 (stereo unspecified)    110 to 112 °C
21) COc1cc2c(cc1OC)C1Cc3ccccc3CC(=O)N1CC2 (stereo unspecified)    195 to 197 °C
